Where do these numbers come from? They come from patent US5153352A.

assay: drug cytotoxicity in Vero cells (CPE-inhibition assay); settings: monkey, vero cells, MTC (minimum drug concentration causing any cytotoxicity), Vero, HSV-1 (E-377) experiment
Structures can show the parent of a compound that is named as a salt.
reportedEndpoint: MCC (µg/mL)
Provide only the numeric value, understood in µg/mL.

Consider the reported MCC for these compounds:
INSERT INTO measurements (compound, reportedendpoint, endpointresult) VALUES
  ('OCC1CC(n2cnc3c(Cl)ncnc32)C1 (stereo not drawn) [Example 8E]', 'MCC', 320),
  ('OCC1CC(n2cc(Br)c3c(Cl)ncnc32)C1CO (stereo not drawn) [Example 67C]', 'MCC', 32),
  ('Nc1ccn(C2CC(CO)C2CO)c(=O)n1 (stereo not drawn) [Example 3]', 'MCC', 320);

Reported MCC, compound Nc1nc(N)c2ncn(C3CC(CO)C3CO)c2n1 (stereo not drawn) [Example 6] : ____
320

Quick one: Nc1nc(Cl)c2ncn(C3CC(CO)C3CO)c2n1 (stereo not drawn) [Example 1H]
320

Next: NCC1CC(n2cnc3c(Cl)ncnc32)C1 (stereo not drawn) [Example 21, hydrochloride]
320

Thanks! And Nc1ncc2ncn(C3CC(CO)C3CO)c2n1 (stereo not drawn) [Example 7] ?
320

Further, for CC(=O)OCC1CC(n2cnc3c(=O)[nH]c(N)nc32)C1COC(C)=O (stereo not drawn) [Example 20] ?
100
